Reference source for all entries: PubChem BioAssay (NCI)

- Tested on: MOLT-4 leukemia
- Test method notes: NCI-60 one-dose screen, 48 h (100 = growth as untreated, 0 = no growth, -100 = all killed)
- Condition details: 10 µM unless noted
About 83,000 compounds went through this panel and 20% of them were active in at least one assay; those are over-represented in the sample as a whole.

{"Compound": "CC(C)CSc1nc(NN)c(C#N)c(-c2ccc(F)cc2)n1", "Tgt": "MOLT-4 leukemia", "growth / %": 80.3}
{"Compound": "CCOC(=O)c1c(/N=C2\\SC(=O)/C(=C\\C(=O)OC)N2NC)sc2c1CCN(C(=O)OCC)C2", "Tgt": "MOLT-4 leukemia", "growth / %": 106}
{"Compound": "S=C(S)NCCc1c[nH]c2ccccc12", "Tgt": "MOLT-4 leukemia", "growth / %": 93.6}
{"Compound": "CCN(CC)c1ccc(N=O)cc1", "Tgt": "MOLT-4 leukemia", "growth / %": 44.9}
{"Compound": "O=S(=O)(NCCNc1nccc(-c2c(-c3cccc(O)c3)nc3sccn23)n1)c1ccc(F)cc1", "Tgt": "MOLT-4 leukemia", "growth / %": 44.5}
{"Compound": "Cc1c(C(=O)/C=C/c2csc3ccccc23)[n+](=O)c2ccccc2n1[O-]", "Tgt": "MOLT-4 leukemia", "growth / %": 81.8}
{"Compound": "N[C@H]1CN(C(=O)c2cc3cc(Br)c(F)c(F)c3[nH]2)C[C@@H]1O", "Tgt": "MOLT-4 leukemia", "growth / %": 98.1}
{"Compound": "CC12CCCC(CC(=O)c3[nH]c4ccccc4c31)C2 (centres undefined)", "Tgt": "MOLT-4 leukemia", "growth / %": 29.5}
{"Compound": "COc1ccc(-c2nc(SCCC(C)C)nc(Nc3ccc(F)c(Cl)c3)c2C#N)cc1", "Tgt": "MOLT-4 leukemia", "growth / %": 86.1}

----------
- Test system: OVCAR-8 ovarian
- Test method notes: NCI-60 one-dose screen, 48 h (100 = growth as untreated, 0 = no growth, -100 = all killed)
- Condition details: 10 µM unless noted
Compounds without any hit were thinned out: in the full panel of roughly 83,000, 20% have a hit.
Property label: growth (%)

{"Line notation": "Fc1ccc(CNCCNc2ncnc3c2cnn3-c2ccccc2)cc1", "Recorded measurement": 88}
{"Line notation": "Cc1c(C(N)=O)sc2c1c(=O)n(Cc1ccccc1)c1nnc(Nc3ccccc3)n21", "Recorded measurement": 89.2}
{"Line notation": "c1ccc(-c2nc(N3CCNCC3)c3nc(-c4ccccc4)oc3n2)cc1", "Recorded measurement": -30.5}
{"Line notation": "NC(N)=Nc1nc2ccccc2o1", "Recorded measurement": 110}
{"Line notation": "O=C(O)c1nc(-c2ccccc2)oc1N1CCOCC1", "Recorded measurement": 98.4}
{"Line notation": "O=S(=O)(c1ccc(OCCO)cc1)c1ccc(OCCO)cc1", "Recorded measurement": 102}
{"Line notation": "COc1ccc(CNCCCN2C(=O)c3ccc4c5c(ccc(c35)C2=O)C(=O)N(CCCNCCCCNCCCN)C4=O)c(OC)c1OC", "Recorded measurement": 4.39}
{"Line notation": "COc1ccc(C(=O)N2NC(=O)/C(=C/c3ccccc3F)N=C2c2ccccc2)cc1", "Recorded measurement": 101}
{"Line notation": "O=C(Nc1cccc(-n2cc(-c3ccncc3)c(-c3ccc(Cl)c(O)c3)n2)c1)Nc1ccc(Cl)c(C(F)(F)F)c1", "Recorded measurement": -41.8}
{"Line notation": "COc1cc(-c2nc(-c3nc4ccc(Cl)cc4[nH]3)cc3c2[nH]c2ccccc23)cc(OC)c1OC", "Recorded measurement": 48.4}
{"Line notation": "COc1ccc(/C=N\\NC(=O)CN2CCN(c3cc4c(cc3F)c(=O)c(C(=O)N/N=C/c3ccc(OC)c(OC)c3)cn4C3CC3)CC2)cc1OC", "Recorded measurement": 13.3}
{"Line notation": "COc1ccc(-c2cc3c(OC)c(OC)c(OC)cc3oc2=O)cc1", "Recorded measurement": 67}
{"Line notation": "O=c1cc(Cc2ccc([N+](=O)[O-])cc2)[nH]c(=O)[nH]1", "Recorded measurement": 103}
{"Line notation": "COc1ccc(-c2cnoc2-c2ccc(OC)cc2O)cc1", "Recorded measurement": 51.4}
{"Line notation": "Nc1nc(Nc2cc(Cl)cc(Cl)c2)nn1S(=O)(=O)c1ccc2ccccc2c1", "Recorded measurement": 40.6}
{"Line notation": "Cc1ccc(-c2cc3nc(C(Cl)Cl)nc(-c4cccnc4)n3n2)cc1", "Recorded measurement": 22.7}
{"Line notation": "C=C[C@@H]1C[C@@H]2Cc3c(C)cc(C)cc3N1O2", "Recorded measurement": 98}
{"Line notation": "Cc1cc(C(C)(C)C)ccc1S", "Recorded measurement": 111}
{"Line notation": "COc1ccc(S(=O)(=O)NCCCNc2nccc(-n3ccc4cccnc43)n2)cc1", "Recorded measurement": 92.7}
{"Line notation": "O=C1CCCCC1(c1ccccc1)c1ccccc1", "Recorded measurement": 110}
{"Line notation": "COc1ccc(/C(C#N)=C/c2cc(OC)c(OC)c(OC)c2)cc1", "Recorded measurement": 57.4}
{"Line notation": "C=COC(=O)CCCCCCCCC", "Recorded measurement": 101}
{"Line notation": "CCC(=O)Oc1ccc(/C(=C(/C)Cc2cccc(OC)c2)c2ccc(OCCN(C)C)cc2)cc1", "Recorded measurement": 102}
{"Line notation": "CCCC(=O)Oc1ccc(/C(=C(\\C)c2ccccc2)c2ccc(OCCN(CC)CC)cc2)cc1", "Recorded measurement": 83.3}
{"Line notation": "COc1c2occc2c(OC)c2c(=O)c(-c3cc(-c4ccc(F)cc4)c(C#N)c(N)n3)c(C)oc12", "Recorded measurement": 49.1}
{"Line notation": "O=C(CSc1nc2ccccc2[nH]1)c1ccc(N2CCOCC2)cc1", "Recorded measurement": 96}
{"Line notation": "C=C[C@@H]1C[C@@H]2Cc3cc(Cl)ccc3N1O2", "Recorded measurement": 99.4}
{"Line notation": "COc1ccc(Nc2ncccc2C(=O)NCc2cn(Cc3cccc(Oc4ccccc4)c3)nn2)c(OC)c1", "Recorded measurement": 43.4}
{"Line notation": "COc1ccc(C(=O)N2NC(=O)/C(=C/c3ccc(Br)cc3)N=C2c2ccccc2)cc1", "Recorded measurement": 78.4}
{"Line notation": "O=C(Nc1ccc2c(c1)OCCO2)C(=O)c1c[nH]c2ccccc12", "Recorded measurement": 53.5}
{"Line notation": "COc1cc(-c2nn(-c3cccc(NC(=O)c4cccc(C(F)(F)F)c4)c3)cc2-c2ccncc2)ccc1Cl", "Recorded measurement": 11.8}
{"Line notation": "CCCCN(CCCC)c1ccc(C(=N)c2ccc(N(CCCC)CCCC)cc2)cc1", "Recorded measurement": -82.1}
